Entries and their GI50
- Target Under Test: Ba/F3 FLT3-ITD^F691L cells (Homo sapiens, UniProt P36888, F691L, cells depend on it, form not given)
- Construct: Ba/F3 FLT3-ITD^F691L IC50 (nM); other: CellTiter-Glo, 72 hrs
- Assay Remarks: Cytotoxicity assay (CellTiter-Glo), Ba/F3 FLT3-ITD F691L
- Type: cell-based
- Condition Set: CellTiter-Glo, 72 hrs; read-out: Ba/F3 FLT3-ITD^F691L IC50
- Procedure: Inhibitory effects of example compounds on the activity of Ba/F3 parental generation, Ba/F3 KIF5B-RET, Ba/F3 KIF5B-RET^V804M, Ba/F3 KIF5B-RET^V804L, Ba/F3 KIF5B-RET^G810R, Ba/F3 FLT3-ITD, Ba/F3 FLT3-ITD^D835Y, Ba/F3 FLT3-ITD^F691L cells were determined. […] 1. Cells in the logarithmic growth phase were harvested and counted with a […]. Cell viability was detected by a trypan blue exclusion method, ensuring that cell viability was 90% or more; 2. […] 1. […] Luminescence value was read. […]
Readout Type: GI50 (nM)

>>> print(df.to_string())
                                   compound  measurement_unit  observed_measurement
0  CC(C)c1nc(-c2ccc(CC(=O)Nc3cc(C(C)(C)C(F)(F)F)on3)cc2)c2c(N)ncnn12                nM                  39.1
1  [2H]C([2H])([2H])C(n1nc(-c2ccc(CC(=O)Nc3cc(C(C)(C)C(F)(F)F)no3)cc2)c2c(N)ncnc21)C([2H])([2H])[2H]                nM                  13.6
2  CC(C)n1cc(-c2ccc(CC(=O)Nc3cc(C(C)(C)C(F)(F)F)on3)cc2)c2c(N)ncnc21                nM                  0.97
3  CC(C)n1nc(-c2ccc(NC(=O)Nc3cc(C(F)(F)F)ccc3F)cc2)c2c(N)ncnc21 [AD80, reference compound]                nM                  11.8
4  CC(C)n1nc(-c2ccc(CC(=O)Nc3cc(C(C)(C)C(F)(F)F)on3)cn2)c2c(N)ncnc21                nM                  3.22
5  [2H]C([2H])([2H])C(n1cc(-c2ccc(CC(=O)Nc3cc(C(C)(C)C(F)(F)F)on3)cc2)c2c(N)ncnc21)C([2H])([2H])[2H]                nM                   3.7
